Give measured ED50 for each item. Keep answers brief.
test system: norepinephrine; experiment: combined apomorphine, tryptamine, norepinephrine (ATN) test in rats: norepinephrine (NOR), peripheral α-adrenergic antagonism; assay type: in vivo; conditions: Rattus norvegicus, read-out: NOR, ED50
Numbers only, in mg/kg.

In the examples that follow, each entry is paired with its recorded ED50.
Cc1nc2scc(C)n2c(=O)c1CCN1CCC(n2ccc3ccccc32)CC1 [Compound 6]    10
CNc1nc(C)c(CCN2CCC(n3ccc4cc(F)ccc43)CC2)c(=O)n1C [Compound 24]    10
Cc1nc2n(c(=O)c1CCN1CCC(n3ccc4ccccc43)CC1)CCCS2 [Compound 16]    10

# per-item lookup of ED50; items listed below
1. Cc1nc2n(c(=O)c1CCN1CCC(n3ccc4cc(F)ccc43)CC1)CCS2 [Compound 2]
2. Cc1nc2sccn2c(=O)c1CCN1CCC(n2ccc3cc(F)ccc32)CC1 [Compound 4]

[10, 2.5]

====

system: dopamine; assay: combined apomorphine, tryptamine, norepinephrine (ATN) test in rats: apomorphine (APO), central dopamine antagonism; assay type: in vivo; settings: Rattus norvegicus, preventing the symptoms elicited with apomorphine
// boundary case: ED50 equal to 0.3 mg/kg maps to 0.0; strictly smaller maps to 1.0

Reference set (5 entries):
Cc1nn2c(=O)c(CCN3CCC(n4ccc5cc(F)ccc54)CC3)c(C)nc2s1    0.0
Cc1nc2n(c(=O)c1CCN1CCC(n3ccc4ccccc43)CC1)CCCS2    1.0
Cc1nc2n(c(=O)c1CCN1CCC(n3ccc4cc(F)ccc43)CC1)C(C)CCC2 (centres unmarked)    1.0
CNc1nc(C)c(CCN2CCC(n3ccc4cc(F)ccc43)CC2)c(=O)n1C    0.0
Cc1nc2ccccn2c(=O)c1CCN1CCC(n2ccc3cc(F)ccc32)CC1    1.0

Would you kindly verify if ED50 of `Cc1nc2c(C)cccn2c(=O)c1CCN1CCC(n2ccc3cc(F)ccc32)CC1` is strictly less than 0.3 mg/kg?
0.0

For this compound, is ED50 lower than 0.3 mg/kg? `Cc1nc2sccn2c(=O)c1CCN1CCC(n2ccc3cc(F)ccc32)CC1`
1.0

Say whether its ED50 is strictly beneath 0.3 mg/kg. Entry: `Cc1nc2n(c(=O)c1CCN1CCC(n3ccc4cc(F)ccc43)CC1)CCCS2`
1.0

Decide: ED50 of `Cc1nc2n(c(=O)c1CCN1CCC(n3ccc4ccccc43)CC1)CCS2` strictly below 0.3 mg/kg?
0.0

ED50 strictly < 0.3 mg/kg for this compound? COC1CCCn2c1nc(C)c(CCN1CCC(n3ccc4cc(F)ccc43)CC1)c2=O (centres unmarked)
1.0

Determine if `CCSc1nc(C)c(CCN2CCC(n3ccc4ccccc43)CC2)c(=O)n1C` shows ED50 strictly lower than 0.3 mg/kg.
0.0

Report whether reported ED50 is lower than 0.3 mg/kg (strictly) for Cc1nc2n(c(=O)c1CCN1CCC(N3c4ccccc4CC3C)CC1)CCCC2 (centres unmarked)
0.0

Does the reported ED50 of `Cc1cc2nc(C)c(CCN3CCC(n4ccc5cc(F)ccc54)CC3)c(=O)n2o1` stay below 0.3 mg/kg?
0.0

Record `Cc1nc2c(C)cccn2c(=O)c1CCN1CCC(n2ccc3ccccc32)CC1` : is its ED50 strictly below 0.3 mg/kg?
0.0

Dear colleague, could you confirm whether ED50 of `Cc1nc2sccn2c(=O)c1CCN1CCC(n2ccc3ccccc32)CC1` falls below 0.3 mg/kg? Thanks.
1.0

Determine whether this compound shows ED50 lower than 0.3 mg/kg (ties excluded): `Cc1nc2scc(C)n2c(=O)c1CCN1CCC(n2ccc3ccccc32)CC1`
1.0

Strictly below 0.3 mg/kg: is that where ED50 of `Cc1nc2n(c(=O)c1CCN1CCC(n3ccc4cc(F)ccc43)CC1)CCCC2` sits?
0.0

For `Cc1nc2n(c(=O)c1CCN1CCC(n3ccc4cc(F)ccc43)CC1)CCS2` , is the recorded ED50 below the cut-off of 0.3 mg/kg?
1.0

Here's an entry: `Cc1nc2sccn2c(=O)c1CCN1CCC(N2CCc3ccccc32)CC1` . Is its ED50 below 0.3 mg/kg?
1.0

Quick check: ED50 of `Cc1nc2n(c(=O)c1CCN1CCC(N3CCc4ccccc43)CC1)CCCC2` under 0.3 mg/kg?
0.0
